# measurement target: T1, human TNFR2 on the surface of CHO-TNFR2 cells (human, UniProt P20333 23-461)
# T1 construct: whole, on cells
# T1 sequence (looked up): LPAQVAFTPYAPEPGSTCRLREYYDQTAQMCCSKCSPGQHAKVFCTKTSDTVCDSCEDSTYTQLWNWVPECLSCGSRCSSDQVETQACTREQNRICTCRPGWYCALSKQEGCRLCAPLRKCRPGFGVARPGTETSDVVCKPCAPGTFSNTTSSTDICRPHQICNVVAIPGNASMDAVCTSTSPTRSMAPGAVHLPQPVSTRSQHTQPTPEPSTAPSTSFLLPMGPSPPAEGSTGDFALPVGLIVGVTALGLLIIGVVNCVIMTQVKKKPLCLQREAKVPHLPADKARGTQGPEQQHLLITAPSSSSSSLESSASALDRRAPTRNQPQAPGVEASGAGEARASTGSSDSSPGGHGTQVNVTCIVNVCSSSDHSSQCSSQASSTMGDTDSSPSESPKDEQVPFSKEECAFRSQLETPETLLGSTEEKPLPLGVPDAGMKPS
# assay notes: competition flow cytometry on CHO-TNFR2 cells, competitor TNFα-biotin; area under the MFI curve
# Set-up: unit not given beside the values
parameter measured: AUC
Please reply with the value in numeric form only.

Illustrative cases are given below, each with its answer.
[[record]]
binder = "001-Hu5 (antibody, V domains shown, Humanized form of #001; also called VH1 + VL4) VH: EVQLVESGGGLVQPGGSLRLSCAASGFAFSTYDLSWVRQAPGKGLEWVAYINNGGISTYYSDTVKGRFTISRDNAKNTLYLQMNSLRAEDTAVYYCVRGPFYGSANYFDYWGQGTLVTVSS VL: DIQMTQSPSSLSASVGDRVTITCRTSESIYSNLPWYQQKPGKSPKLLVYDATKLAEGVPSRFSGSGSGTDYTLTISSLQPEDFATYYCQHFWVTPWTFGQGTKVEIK"
numeric_result = 10200

[[record]]
binder = "001-Hu3 (antibody, V domains shown, Humanized form of #001; also called VH1 + VL3) VH: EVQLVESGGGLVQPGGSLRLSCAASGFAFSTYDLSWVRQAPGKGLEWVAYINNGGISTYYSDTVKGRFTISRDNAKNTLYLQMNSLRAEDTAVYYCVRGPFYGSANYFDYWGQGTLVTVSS VL: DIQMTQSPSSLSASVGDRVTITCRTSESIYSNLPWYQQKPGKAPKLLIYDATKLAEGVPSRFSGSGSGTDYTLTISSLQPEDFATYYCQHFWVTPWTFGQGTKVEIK"
numeric_result = 8810

[[record]]
binder = "001-Hu2 (antibody, V domains shown, Humanized form of #001; also called VH2 + VL2) VH: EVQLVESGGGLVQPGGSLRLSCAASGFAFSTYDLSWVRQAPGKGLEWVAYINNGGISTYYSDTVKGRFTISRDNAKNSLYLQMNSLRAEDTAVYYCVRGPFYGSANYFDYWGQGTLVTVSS VL: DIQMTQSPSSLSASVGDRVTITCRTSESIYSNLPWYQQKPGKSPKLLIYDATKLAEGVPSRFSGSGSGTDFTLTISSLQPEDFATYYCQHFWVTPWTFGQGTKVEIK"
numeric_result = 9000

[[record]]
binder = "219-Hu3 (antibody, V domains shown, also called VH5 + VL5) VH: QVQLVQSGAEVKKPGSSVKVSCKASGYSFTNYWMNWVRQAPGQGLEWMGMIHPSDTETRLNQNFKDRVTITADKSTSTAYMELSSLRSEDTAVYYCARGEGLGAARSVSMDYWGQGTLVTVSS VL: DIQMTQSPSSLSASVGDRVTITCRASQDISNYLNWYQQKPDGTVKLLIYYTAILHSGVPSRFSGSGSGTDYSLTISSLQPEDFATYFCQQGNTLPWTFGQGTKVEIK"
numeric_result = 7590

[[record]]
binder = "219-Hu1 (antibody, V domains shown, also called VH3 + VL5) VH: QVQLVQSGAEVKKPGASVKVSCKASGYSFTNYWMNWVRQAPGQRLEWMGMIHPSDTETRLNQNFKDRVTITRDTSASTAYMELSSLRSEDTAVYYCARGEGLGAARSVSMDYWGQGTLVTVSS VL: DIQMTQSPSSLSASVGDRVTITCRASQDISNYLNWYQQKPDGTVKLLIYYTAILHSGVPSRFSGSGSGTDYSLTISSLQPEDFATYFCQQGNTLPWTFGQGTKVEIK"
numeric_result = 7320


Look up AUC: 224-Hu5 (antibody, V domains shown, Humanized form of #224; also called VH9 + VL9) VH: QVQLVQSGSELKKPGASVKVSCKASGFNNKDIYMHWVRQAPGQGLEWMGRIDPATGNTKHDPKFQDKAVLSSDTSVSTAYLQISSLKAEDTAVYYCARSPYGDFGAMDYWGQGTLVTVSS VL: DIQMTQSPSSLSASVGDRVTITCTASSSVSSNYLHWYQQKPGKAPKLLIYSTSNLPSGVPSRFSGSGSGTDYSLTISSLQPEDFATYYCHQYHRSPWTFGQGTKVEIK
14600

The measured values listed here are drawn from patent US20240109974A1.
